# measured on: T1, TIGIT (UniProt Q495A1 22-141, limits assumed)
# T1 construct: also called T cell immunoreceptor with Ig and ITIM domains; hTIGIT
# T1 sequence (looked up): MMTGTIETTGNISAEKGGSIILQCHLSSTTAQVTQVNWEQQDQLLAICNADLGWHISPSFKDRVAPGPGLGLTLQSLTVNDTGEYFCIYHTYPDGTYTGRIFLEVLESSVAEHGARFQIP
# procedure text: SPR (Carterra)
Exercise: state measured kon for each of the binders provided.
Answers are plain numbers, in M⁻¹ s⁻¹.

TIGIT-211-18 (antibody, V domains shown) VH: EVQLLESGGGLVQPGGSLRLSCAASGFTFGTIPMSWVRQAPGKGLEWVGVIWGGGGTYYADSVKGRFTISRDNSKNTLYLQMNSLRAEDTAVYYCAKAHGNPVSDLSFDYWGQGTLVTVSS VL: DIQMTQSPSSLSASVGDRVTITCSGDKLGDKYTSWYQQKPGKAPKLLIYHTSRLQDGVPSRFSGSGSGTDFTLTISSLQPEDFATYYCQQSYNLPLTFGQGTKVEIK	3110
TIGIT-211-43 (antibody, V domains shown) VH: EVQLLESGGGLVQPGGSLRLSCAASGFTFYDYTMDWVRQAPGKGLEWVSAISGSGGGTSYADSVKGRFTISRDNSKNTLYLQMNSLRAEDTAVYYCARRHWPGGFDYWGQGTLVTVSS VL: DIQMTQSPSSLSASVGDRVTITCRASQSIRRYLNWYQQKPGKAPKLLIYWASDRESGVPSRFSGSGSGTDFTLTISSLQPEDFATYYCQQSFSTPLTFGQGTKVEIK	1430

// switching to the query binder
kon recorded for this binder, TIGIT-211-69 (antibody, V domains shown) VH: EVQLLESGGGLVQPGGSLRLSCAASGFTFGNYRMTWVRQAPGKGLEWVGVIWGGGGTYYADSVKGRFTISRDNSKNTLYLQMNSLRAEDTAVYYCARIFSYALDYWGQGTLVTVSS VL: DIQMTQSPSSLSASVGDRVTITCRASQNIRSYLNWYQQKPGKAPKLLIYGASTLQSGVPSRFSGSGSGTDFTLTISSLQPEDFATYYCQQSYENPLTFGQGTKVEIK , is 20400
